tested on: morningglory; experiment: Test B pre/postemergence morningglory; format: in vivo, Ipomoea hederacea; conditions: Postemergence, Rate 62 g/ha; scale 0 to 10, 0 is no effect, 10 is complete control
Readout kind: Plant response rating, Morningglory
Answers are plain numbers.

// known answers, use as guide
Compound: CC(C)N(C(=O)n1oc(=O)n(Cc2nnc(Cl)s2)c1=O)c1ccc(F)cc1
Tested target: morningglory
Plant response rating, Morningglory: 0

Compound: CC(C)N(C(=O)n1oc(=O)n(CC2=NOCCO2)c1=O)c1ccc(F)cc1F
Tested target: morningglory
Plant response rating, Morningglory: 2

Compound: CC(C)N(C(=O)n1oc(=O)n(CC(=O)C2CCC2)c1=O)c1ccc(F)cc1
Tested target: morningglory
Plant response rating, Morningglory: 0

Compound: CCOC(Cn1c(=O)on(C(=O)N(c2ccc(F)cc2F)C(C)C)c1=O)OCC
Tested target: morningglory
Plant response rating, Morningglory: 1

Compound: CCOC(Cn1c(=O)on(C(=O)N(c2ccc(F)cc2)C(C)C)c1=O)OCC
Tested target: morningglory
Plant response rating, Morningglory: 2

Each of the following entries comes with a recorded value; kindly state Plant response rating, Morningglory for each.
1. CC(C)N(C(=O)n1oc(=O)n(CC(F)F)c1=O)c1ccc(Cl)cc1
2. CC(C)N(C(=O)n1oc(=O)n(C(C)C2=NOCC2)c1=O)c1ccc(Cl)cc1 (racemic)

1. 3
2. 3
